target: SARS-CoV-2 3CL-protease (Severe acute respiratory syndrome coronavirus 2 (2019-nCoV) (SARS-CoV-2), UniProt P0DTD1); test: SARS-CoV-2 3C-like (3CL) protease fluorescence assay (FRET); assay type: biochemical; conditions: recombinant SARS-CoV-2 3CL-protease 10 nM, 30 min preincubation, duplicate; read-out: FRET IC50
PARAMETER_MEASURED: IC50

Data request: Specify reported IC50 for the compound shown: CC(C)C[C@@H](C(=O)N1C[C@]2(C[C@H]1C#N)C(=O)Nc1ccccc12)N(C)C(=O)C(=O)Nc1ccc(F)cc1F [Compound 2]
Data returned: < 100 nM

Data request: Specify reported IC50 for the compound shown: CC(C)C[C@@H](C(=O)N1C[C@]2(C[C@H]1C#N)C(=O)Nc1ccccc12)N(C)C(=O)C(=O)Nc1n[nH]c2ccccc12 [Compound 19]
Data returned: < 100 nM

----------
target: SARS-CoV-2 3CL-protease (Severe acute respiratory syndrome coronavirus 2 (2019-nCoV) (SARS-CoV-2), UniProt P0DTD1); experiment: SARS-CoV-2 3C-like (3CL) protease fluorescence assay (FRET); type: biochemical; conditions: read-out: FRET IC50; recombinant SARS-CoV-2 3CL-protease 10 nM, 30 min preincubation, duplicate
pIC50: −log10 of the molar value.
PARAMETER_MEASURED: pIC50

Data request: Specify reported pIC50 for the compound shown: CC(C)C[C@@H](C(=O)N1C[C@]2(C[C@H]1C#N)C(=O)Nc1ccccc12)N(C)C(=O)C(=O)Nc1ccc(F)cc1F
Data returned: > 7.00

----------
target: SARS-CoV-2 3CL-protease (Severe acute respiratory syndrome coronavirus 2 (2019-nCoV) (SARS-CoV-2), UniProt P0DTD1); assay: SARS-CoV-2 3C-like (3CL) protease fluorescence assay (FRET); type: biochemical
PARAMETER_MEASURED: IC50

Data request: Specify reported IC50 for the molecule shown: [2H]C([2H])([2H])N(C(=O)C(=O)Nc1ccc(C(F)(F)F)cc1C(F)(F)F)[C@@H](CC1CC1)C(=O)N1C[C@]2(C[C@H]1C#N)C(=O)Nc1ccccc12 [Compound 68]
Data returned: < 100 nM

Data request: Specify reported IC50 for the molecule shown: CC(C)C[C@@H](C(=O)N1C[C@]2(C[C@H]1C#N)C(=O)Nc1ccccc12)N(C)C(=O)C(=O)C1CC1 [Compound 43]
Data returned: < 100 nM

Data request: Specify reported IC50 for the molecule shown: CC(C)C[C@@H](C(=O)N1C[C@]2(C[C@H]1C#N)C(=O)Nc1ccccc12)N(C)C(=O)C(=O)N(C)c1ccc(F)cc1 [Compound 10]
Data returned: < 100 nM

Data request: Specify reported IC50 for the molecule shown: [2H]C([2H])([2H])N(C(=O)C(=O)Nc1ccc(F)c(F)c1)[C@@H](CC1CC1)C(=O)N1C[C@]2(C[C@H]1C#N)C(=O)Nc1ccccc12 [Compound 38]
Data returned: < 100 nM

Data request: Specify reported IC50 for the molecule shown: [2H]C([2H])([2H])N(C(=O)C(=O)Nc1ccccc1)[C@@H](Cc1ccccc1)C(=O)N1C[C@]2(C[C@H]1C#N)C(=O)Nc1ccccc12 [Compound 32]
Data returned: < 100 nM

Data request: Specify reported IC50 for the molecule shown: CC(C)C[C@@H](C(=O)N1C[C@]2(C[C@H]1C#N)C(=O)Nc1ccccc12)N(C)C(=O)C(=O)Nc1nc2ccccc2[nH]1 [Compound 52]
Data returned: 100 to 1000 nM

Data request: Specify reported IC50 for the molecule shown: CC(C)(C)C[C@H](NC(=O)C(=O)NC1(c2ccc(F)cc2F)CC1)C(=O)N1C[C@]2(C[C@H]1C#N)C(=O)Nc1ccccc12 [Compound 72]
Data returned: < 100 nM

Data request: Specify reported IC50 for the molecule shown: CC(C)C[C@@H](C(=O)N1C[C@]2(C[C@H]1C#N)C(=O)Nc1ccccc12)N(C)C(=O)C(=O)Nc1nc2ccccc2o1 [Compound 53]
Data returned: > 1000 nM

Data request: Specify reported IC50 for the molecule shown: [2H]C([2H])([2H])N(C(=O)C(=O)NC1CCCCC1)[C@@H](CC(C)(C)C)C(=O)N1C[C@]2(C[C@H]1C#N)C(=O)Nc1ccccc12 [Compound 26]
Data returned: < 100 nM

Data request: Specify reported IC50 for the molecule shown: [2H]C([2H])([2H])N(C(=O)C(=O)Nc1ccc(F)cc1)[C@@H](CC(C)(C)C)C(=O)N1C[C@]2(C[C@H]1C#N)C(=O)Nc1ccccc12 [Compound 22]
Data returned: < 100 nM

Data request: Specify reported IC50 for the molecule shown: CC(C)(C)C[C@H](NC(=O)C(=O)NC(C)(C)C)C(=O)N1C[C@]2(C[C@H]1C#N)C(=O)Nc1ccccc12 [Compound 69]
Data returned: < 100 nM

Data request: Specify reported IC50 for the molecule shown: [2H]C([2H])([2H])N(C(=O)C(=O)Nc1ccccn1)[C@@H](CC(C)(C)C)C(=O)N1C[C@]2(C[C@H]1C#N)C(=O)Nc1ccccc12 [Compound 27]
Data returned: 100 to 1000 nM
